experiment: in vitro; settings: human, microsomes
Starred links: 1 amine or outer side, 2 acyl side, 3 side chain; linkers in the order of their positions; H or OH if unused. Non-standard residues stand in square brackets, D forms with d. Residues, ends and D or L forms follow the SMILES beside them. X1 = CC(C)C[C@H](NC(=S)[C@H](Cc1ccc(O)cc1)N[*:1])C(=O)[*:2]; X2 = CC(C)C[C@H](NC(=S)[C@@H](CC(C)C)N[*:1])C(=O)[*:2]; NMeL = CN[C@@H](CC(C)C)C(=O)O; dNMeL = CN[C@H](CC(C)C)C(=O)O
measured endpoint: remaining at 10 min (%)

Guide cases for remaining at 10 min, answers given:
compound="CC(C)C[C@@H]1NC(=O)[C@@H](CC(C)C)NC(=O)[C@H](CC(C)C)NC(=S)[C@H](Cc2ccc(O)cc2)NC(=O)[C@H]2CCCN2C(=O)[C@H](CC(C)C)NC1=O [10e] (cyclo(LL[dP][X1][dL]))" measured_endpoint="remaining at 10 min" unit_label=% assay_value=70
compound="CC(C)C[C@@H]1NC(=O)[C@H](Cc2ccc(O)cc2)NC(=O)[C@H]2CCCN2C(=O)[C@H](CC(C)C)N(C)C(=O)[C@H](CC(C)C)NC(=O)[C@@H](CC(C)C)NC1=O [10i] (cyclo(L[NMeL][dP]YL[dL]))" measured_endpoint="remaining at 10 min" unit_label=% assay_value=54
compound="CC(C)C[C@@H]1NC(=O)[C@@H](CC(C)C)N(C)C(=O)[C@H](CC(C)C)NC(=O)[C@H](Cc2ccc(O)cc2)NC(=O)[C@H]2CCCN2C(=O)[C@H](CC(C)C)NC1=O [10g] (cyclo(LL[dP]YL[dNMeL]))" measured_endpoint="remaining at 10 min" unit_label=% assay_value=67
compound="CC(C)C[C@@H]1NC(=O)[C@H](Cc2ccc(O)cc2)NC(=O)[C@H]2CCCN2C(=O)[C@H](CC(C)C)NC(=O)[C@H](CC(C)C)NC(=O)[C@@H](CC(C)C)NC1=O [compound 10, cyclo(-D-Leu^1-Leu-Leu-D-Pro-Tyr-Leu^6-)] (cyclo(LL[dP]YL[dL]))" measured_endpoint="remaining at 10 min" unit_label=% assay_value=40
compound="CC(C)C[C@@H]1NC(=O)[C@H](Cc2ccc(O)cc2)NC(=O)[C@H]2CCCN2C(=O)[C@H](CC(C)C)NC(=O)[C@H](CC(C)C)NC(=S)[C@@H](CC(C)C)NC1=O [10a] (cyclo(L[dP]YL[X2]))" measured_endpoint="remaining at 10 min" unit_label=% assay_value=65

[A] CC(C)C[C@@H]1NC(=O)[C@@H](CC(C)C)NC(=O)[C@H](CC(C)C)N(C)C(=O)[C@H](Cc2ccc(O)cc2)NC(=O)[C@H]2CCCN2C(=O)[C@H](CC(C)C)NC1=O [10k] (cyclo(LL[dP]Y[NMeL][dL]))
[B] CC(C)C[C@@H]1NC(=O)[C@H](Cc2ccc(O)cc2)NC(=O)[C@H]2CCCN2C(=O)[C@H](CC(C)C)NC(=O)[C@H](CC(C)C)N(C)C(=O)[C@@H](CC(C)C)NC1=O [10h] (cyclo(L[dL][NMeL]L[dP]Y))
Looking only at measured remaining at 10 min, which entry is lower, A or B ? Your answer should be the label attached to the chosen record.
A
